Test system: SMN2 CJ mRNA
Experiment: Gene panel canonical junction qPCR assay, SMN2
Assay type: cell-based
Details: Homo sapiens, larger gene panel, read-out: SMN2 IC50 (decrease in CJ mRNA levels)
IC50 values by entry
Measure name: IC50

compound="Cc1cn2cc(-c3cc4ncn([C@H]5CCNC[C@@H]5O)c(=O)c4s3)cc(F)c2n1 [Compound 280]" measured_on="SMN2 CJ mRNA" measure_name=IC50 observed_measurement="100 to 1000 nM"
compound="Cc1cn2cc(-c3cc4ncn(N5CCNCC5)c(=O)c4s3)cc(F)c2n1 [Compound 269]" measured_on="SMN2 CJ mRNA" measure_name=IC50 observed_measurement="< 100 nM"
compound="Cc1cn2cc(-c3cc4ncn(C5CCNCC5)c(=O)c4s3)ncc2n1 [Compound 264]" measured_on="SMN2 CJ mRNA" measure_name=IC50 observed_measurement="100 to 1000 nM"
compound="Cc1cn2cc(-c3nc4cnn(C5CCNCC5)c(=O)c4s3)nc(C)c2n1 [Compound 812]" measured_on="SMN2 CJ mRNA" measure_name=IC50 observed_measurement="> 10000 nM"
compound="COc1cc(-c2cc3ncn(C4CCNCC4)c(=O)c3s2)ccn1 [Compound 263]" measured_on="SMN2 CJ mRNA" measure_name=IC50 observed_measurement="1000 to 10000 nM"
compound="Cc1cn2nc(-c3cc4ccn(C5CCN(C)CC5)c(=O)c4s3)cc(C)c2n1 [Compound 809]" measured_on="SMN2 CJ mRNA" measure_name=IC50 observed_measurement="100 to 1000 nM"
compound="Cc1cn2cc(-c3cc4ncn(C5CNCCC5=O)c(=O)c4s3)cc(F)c2n1 (stereo not shown) [Compound 279]" measured_on="SMN2 CJ mRNA" measure_name=IC50 observed_measurement="> 10000 nM"
compound="Cc1cn2cc(-c3cn4c(=O)cc(N5CCNCC5)nc4s3)cc(F)c2n1 [Compound 213]" measured_on="SMN2 CJ mRNA" measure_name=IC50 observed_measurement="1000 to 10000 nM"
compound="Cc1cn2cc(-c3cc(=O)n4nc(N5CCN(C)CC5)sc4n3)cc(F)c2n1 [Compound 159]" measured_on="SMN2 CJ mRNA" measure_name=IC50 observed_measurement="1000 to 10000 nM"
compound="Cc1cc(-c2cn3c(=O)cc(N4CCN(C)CC4)nc3s2)cc2cn(C)nc12 [Compound 183]" measured_on="SMN2 CJ mRNA" measure_name=IC50 observed_measurement="1000 to 10000 nM"

----------
Test: Cell Titer Glo 2.0 cell viability assay
Details: human, K562 cells
GI50 at 72 h values by entry
Measure name: GI50 at 72 h

compound="Cc1cn2cc(-c3nn4c(=O)cc(N5CCNCC5)nc4s3)cc(F)c2n1 [Compound 214]" observed_measurement="1000 to 10000 nM"
compound="COc1cc(-c2cc3ncn(C4CCNCC4)c(=O)c3s2)ccn1 [Compound 263]" observed_measurement="1000 to 10000 nM"
compound="Cc1cn2cc(-c3cc4ncn(C5CCNCC5)c(=O)c4s3)cc(C)c2n1 [Compound 261]" observed_measurement="1000 to 10000 nM"
compound="Cn1cc2cc(-c3cc4ncn(C5CCNCC5)c(=O)c4s3)cc(C#N)c2n1 [Compound 259]" observed_measurement="1000 to 10000 nM"
compound="Cc1cn2cc(-c3cc4ncn(C5=CCNCC5)c(=O)c4s3)cc(F)c2n1 [Compound 276]" observed_measurement="100 to 1000 nM"
compound="Cc1cn2cc(-c3nn4c(=O)cc(N5CCNC6(CC6)C5)nc4s3)cc(F)c2n1 [Compound 216]" observed_measurement="1000 to 10000 nM"
compound="Cc1cc(-c2cc(=O)n3cc(N4CCN(C)CC4)sc3n2)cc2cn(C)nc12 [Compound 109]" observed_measurement="1000 to 10000 nM"
compound="Cc1cc(-c2cc3ncn(C4CCN(C)CC4)c(=O)c3s2)cc2cn(C)nc12 [Compound 237]" observed_measurement="100 to 1000 nM"
compound="Cc1cn2cc(-n3cnc4nc(N5CCNCC5)sc4c3=O)cc(F)c2n1 [Compound 226]" observed_measurement="100 to 1000 nM"
compound="Cc1cn2cc(-c3cc4ncn([C@H]5CCNC[C@H]5F)c(=O)c4s3)cc(F)c2n1 (relative stereo) [Compound 273]" observed_measurement="1000 to 10000 nM"
compound="Cc1cc(-c2cc3ccn(C4CCN(C)CC4)c(=O)c3s2)cc2cn(C)nc12 [Compound 807]" observed_measurement="1000 to 10000 nM"
compound="Cc1cn2cc(-c3cc4ncn(C5CNCCC5=O)c(=O)c4s3)cc(F)c2n1 (centres unmarked) [Compound 279]" observed_measurement="> 10000 nM"
compound="Cc1cn2cc(-c3cc4ncn(C5CCNCC5)c(=O)c4s3)cc(F)c2n1 [Compound 235]" observed_measurement="100 to 1000 nM"
compound="Cn1cc2cc(-n3cnc4nc(N5CCNCC5)sc4c3=O)ccc2n1 [Compound 225]" observed_measurement="> 10000 nM"

Origin of the recorded values: patent US20240366612A1
